The origin of these recorded values is ChEMBL document CHEMBL3425479.

# Measured Target: Mu-type opioid receptor (Homo sapiens, UniProt P35372)
# Sequence (P35372 whole entry): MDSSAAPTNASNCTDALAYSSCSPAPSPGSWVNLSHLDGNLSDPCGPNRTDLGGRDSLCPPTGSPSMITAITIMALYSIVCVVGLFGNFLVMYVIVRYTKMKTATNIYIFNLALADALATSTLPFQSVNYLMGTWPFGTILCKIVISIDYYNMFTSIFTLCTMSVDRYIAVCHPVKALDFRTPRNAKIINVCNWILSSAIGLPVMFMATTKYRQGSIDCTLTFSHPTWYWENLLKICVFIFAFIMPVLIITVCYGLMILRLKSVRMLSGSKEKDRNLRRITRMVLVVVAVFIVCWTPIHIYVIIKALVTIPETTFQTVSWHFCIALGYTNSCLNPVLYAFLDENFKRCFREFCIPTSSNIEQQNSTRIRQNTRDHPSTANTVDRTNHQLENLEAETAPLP
# Procedure Details: Positive allosteric modulation of human mu opioid receptor-1 expressed in CHO cells assessed as potentiation of endomorphin 1-induced response after 90 mins by beta-arrestin recruitment assay
pEC50: −log10 of the molar value.
# maps each entry to its pEC50

Smiles Input: CC1(C)CC(=O)C2=C(C1)OC1=C(C(=O)CC(C)(C)C1)C2c1ccc(OCc2ccccc2Cl)cc1
Relation Symbol: <
pEC50: 5.00
--
Smiles Input: CC1(C)CC(=O)C2=C(C1)OC1=C(C(=O)CC(C)(C)C1)C2c1ccc(OCc2ccccc2S(C)(=O)=O)cc1
Relation Symbol: =
pEC50: 5.30
--
Smiles Input: CC1(C)CC(=O)C2=C(C1)OC1=C(C(=O)CC(C)(C)C1)C2c1ccc(OCc2ccccc2OC(F)F)cc1
Relation Symbol: =
pEC50: 5.52
--
Smiles Input: CC1(C)CC(=O)C2=C(C1)OC1=C(C(=O)CC(C)(C)C1)C2c1ccc(OCc2ccccc2)cc1
Relation Symbol: =
pEC50: 5.22
--
Smiles Input: CC1(C)CC(=O)C2=C(C1)OC1=C(C(=O)CC(C)(C)C1)C2c1ccc(OCc2ccccc2CO)cc1
Relation Symbol: =
pEC50: 5.00
--
Smiles Input: Cc1cccc(COc2ccc(C3C4=C(CC(C)(C)CC4=O)OC4=C3C(=O)CC(C)(C)C4)cc2)c1
Relation Symbol: =
pEC50: 5.52

----------
# Measured Target: Delta-type opioid receptor (Homo sapiens, UniProt P41143)
# Sequence (P41143 whole entry): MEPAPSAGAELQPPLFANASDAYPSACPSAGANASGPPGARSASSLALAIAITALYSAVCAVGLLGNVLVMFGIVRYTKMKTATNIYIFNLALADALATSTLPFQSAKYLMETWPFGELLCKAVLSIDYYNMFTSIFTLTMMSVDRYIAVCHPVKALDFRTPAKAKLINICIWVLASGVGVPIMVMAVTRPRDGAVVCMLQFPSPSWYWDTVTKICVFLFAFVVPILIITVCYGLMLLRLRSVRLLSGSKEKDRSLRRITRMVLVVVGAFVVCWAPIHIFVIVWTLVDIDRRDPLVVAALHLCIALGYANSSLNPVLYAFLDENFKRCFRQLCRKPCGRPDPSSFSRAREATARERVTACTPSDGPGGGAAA
# Procedure Details: Positive allosteric modulation of human delta opioid receptor-1 expressed in CHO cells assessed as potentiation of leu-enkephalin-induced response after 90 mins by beta-arrestin recruitment assay
pEC50: −log10 of the molar value.
# maps each entry to its pEC50

Smiles Input: CC1(C)CC(=O)C2=C(C1)OC1=C(C(=O)CC(C)(C)C1)C2c1ccc(OCc2cccc(Cl)c2Cl)cc1
Measured Target: Delta-type opioid receptor (Homo sapiens, UniProt P41143)
Relation Symbol: =
pEC50: 7.00

Smiles Input: Cc1ccc(COc2ccc(C3C4=C(CC(C)(C)CC4=O)OC4=C3C(=O)CC(C)(C)C4)cc2)cc1
Measured Target: Delta-type opioid receptor (Homo sapiens, UniProt P41143)
Relation Symbol: =
pEC50: 6.52

Smiles Input: CC1(C)CC(=O)C2=C(C1)OC1=C(C(=O)CC(C)(C)C1)C2c1ccc(OCc2ccccc2C(F)(F)F)cc1
Measured Target: Delta-type opioid receptor (Homo sapiens, UniProt P41143)
Relation Symbol: <
pEC50: 5.00

Smiles Input: CC1(C)CC(=O)C2=C(C1)OC1=C(C(=O)CC(C)(C)C1)C2c1ccc(OCc2ccccc2F)cc1
Measured Target: Delta-type opioid receptor (Homo sapiens, UniProt P41143)
Relation Symbol: =
pEC50: 7.00

Smiles Input: CC1(C)CC(=O)C2=C(C1)OC1=C(C(=O)CC(C)(C)C1)C2c1ccc(OCc2cccc(F)c2)cc1
Measured Target: Delta-type opioid receptor (Homo sapiens, UniProt P41143)
Relation Symbol: =
pEC50: 6.00
